IC50 values by entry
- experimentalSystem: Receptor-type tyrosine-protein kinase FLT3 (Homo sapiens, UniProt P36888)
- assayExplanation: Inhibition of recombinant FLT3 (unknown origin) by TR-FRET assay
readoutLabel: IC50 (nM)

1. O=c1c(O)c(-c2ccc(O)cc2)oc2cc(O)cc(O)c12; 2320
2. O=c1cc(-c2ccc(O)c(O)c2)oc2cc(O)cc(O)c12; 830
3. O=c1cc(-c2ccc(O)cc2)oc2cc(O)cc(O)c12; 1450
4. COc1c(O)cc2oc(-c3ccccc3)cc(=O)c2c1O; 1480
5. O=c1c(O)c(-c2ccc(O)c(O)c2)oc2cc(O)cc(O)c12; 590

====

- experimentalSystem: UniProt P36888
- Sequence (P36888 whole entry): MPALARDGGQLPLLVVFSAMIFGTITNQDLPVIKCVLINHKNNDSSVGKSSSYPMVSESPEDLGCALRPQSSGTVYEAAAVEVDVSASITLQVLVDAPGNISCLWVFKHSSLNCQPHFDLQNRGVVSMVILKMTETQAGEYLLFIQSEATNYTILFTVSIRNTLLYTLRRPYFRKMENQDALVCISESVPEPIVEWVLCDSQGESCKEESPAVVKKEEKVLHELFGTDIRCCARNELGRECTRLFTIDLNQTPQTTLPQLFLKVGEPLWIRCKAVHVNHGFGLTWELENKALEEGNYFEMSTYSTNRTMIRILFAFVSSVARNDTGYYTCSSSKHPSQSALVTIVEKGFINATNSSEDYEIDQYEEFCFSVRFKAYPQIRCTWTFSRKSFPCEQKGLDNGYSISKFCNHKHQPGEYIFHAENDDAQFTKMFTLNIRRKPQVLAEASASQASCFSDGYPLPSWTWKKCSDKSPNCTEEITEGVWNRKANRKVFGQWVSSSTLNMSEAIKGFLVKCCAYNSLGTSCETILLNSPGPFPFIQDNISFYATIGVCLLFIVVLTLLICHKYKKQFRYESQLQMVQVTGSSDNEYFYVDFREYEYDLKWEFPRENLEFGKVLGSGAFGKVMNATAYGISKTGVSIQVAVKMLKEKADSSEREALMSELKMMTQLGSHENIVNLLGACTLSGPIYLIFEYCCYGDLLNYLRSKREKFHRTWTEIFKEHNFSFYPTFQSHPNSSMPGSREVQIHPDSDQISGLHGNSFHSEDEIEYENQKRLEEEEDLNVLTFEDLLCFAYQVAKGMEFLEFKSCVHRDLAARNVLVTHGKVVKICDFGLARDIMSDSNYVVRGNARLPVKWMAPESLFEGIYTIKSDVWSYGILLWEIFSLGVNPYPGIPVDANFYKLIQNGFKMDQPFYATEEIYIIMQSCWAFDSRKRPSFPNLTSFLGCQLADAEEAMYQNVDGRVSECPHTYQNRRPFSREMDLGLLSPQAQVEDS
- assayExplanation: Inhibition of recombinant FLT3 (unknown origin) by TR-FRET assay
pIC50: −log10 of the molar value.
readoutLabel: pIC50

1) O=C1c2c(O)cc(O)cc2O[C@H](c2ccc(O)cc2)[C@H]1O [DIHYDROKAEMPFEROL]; < 5.00
2) O=c1c(O[C@@H]2O[C@H](CO)[C@@H](O)[C@H](O)[C@H]2O)c(-c2ccc(O)c(O)c2)oc2cc(O)cc(O)c12; < 5.00
3) O=C1C[C@@H](c2ccc(O)c(O)c2)Oc2cc(O)cc(O)c21; < 5.00
4) O=c1c(OC2O[C@H](CO)[C@@H](O)[C@H](O)[C@@H]2O)c(-c2ccc(O)c(O)c2)oc2cc(O)cc(O)c12 (stereo partly specified); < 5.00
5) O=c1cc(-c2ccccc2)oc2cc(O)c(O)c(O)c12; < 5.00
6) O=c1c(O)c(-c2cc(O)c(O)c(O)c2)oc2cc(O)cc(O)c12; 5.77
